pKi: −log10 of the molar value.
parameterMeasured: pKi

// fetch pKi; item: S=C(NC1CCCCC1)N1CCC(c2cnc[nH]2)CC1 ; system: Sodium-dependent serotonin transporter (Cavia porcellus, UniProt O35899) < 5.00

All values here come from BindingDB's records for doi:10.1111/j.1476-5381.1995.tb15071.x.
